Consider the following binders; for each one, report its koff.
Biological target: T1, recombinant extracellular domain (ECD) of human TF, amino acid 1-219 of the mature chain, C-terminal His6-tag (human, UniProt P13726 33-251)
T1 construct: expressed in a mammalian system; used for ELISA and Biacore; biotinylated by NHS-ester for the Fab ELISA; also called His6-TF-ECD1-219; HumanTF1-219
Assay: Biacore
Write the value in s⁻¹ as a bare number.

Problem: Which koff reading was recorded for the binder M1605 (antibody, V domains shown, complete MAb; FR4 is its own entry; also called H168/L3) VH: EVQLVQSGAEVKKPGESLRISCKGSGYTFGTYWIEWVRQMPGKGLEWMGDILPGTGHTTYSPSFQGHVTISADKSISTAYLQWSSLKASDTAMYYCARSGYYGNSGFAYWGQGTLVTVSS VL: DIVMTQTPLSLPVTPGEPASISCKSSQSLLSSGNQKNYLTWYLQKPGQSPQLLIYWASTRESGVPDRFSGSGSGTDFTLKISRVEAEDVGVYYCQNDYTYPLTFGQGTKLEIK ?
Solution: 8.6e-05

Problem: Record: M46 (antibody, V domains shown, complete MAb; FR4 is its own entry; also called H20/L4) VH: QVQLVQSGAEVKKPGASVKVSCKASGYTFITYWIEWVRQAPGQGLEWMGDILPGSGSTNYNENFKGRVTMTTDTSTSTAYMELRSLRSDDTAVYYCARSGYYGNSGFAYWGQGTLVTVSS VL: DIVMTQSPLSLPVTPGEPASISCKSSQSLLSSGNQKNYLTWYLQKPGQSPQLLIYWASTRESGVPDRFSGSGSGTDFTLKISRVEAEDVGVYYCQNDYTYPLTFGQGTKLEIK
Solution: 4.4e-05

Problem: Record: M1596 (antibody, V domains shown, complete MAb; FR4 is its own entry; also called H185/L3) VH: EVQLVQSGAEVKKPGESLRISCKGSGYTFTPYWIEWVRQMPGKGLEWMGDILPGSGHTTYSPSFQGHVTISADKSISTAYLQWSSLKASDTAMYYCARSGYYGNSGFAYWGQGTLVTVSS VL: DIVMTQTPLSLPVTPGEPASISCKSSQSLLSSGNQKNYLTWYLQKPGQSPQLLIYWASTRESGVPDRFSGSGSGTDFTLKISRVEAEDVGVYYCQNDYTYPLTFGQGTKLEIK
Solution: 4.3e-05
